# maps each entry to its self-cleavage
B1: Hairpin Ribozyme (parent)
chain: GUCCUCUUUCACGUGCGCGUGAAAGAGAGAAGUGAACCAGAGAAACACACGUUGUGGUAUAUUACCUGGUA

Variants of: B1
assay_comment: self-cleavage, relative activity (ratio to wild type); higher = more cleavage; co-transcriptional
Output: the number by itself.

Reference set (10 entries):
G17U G40U    0.181
G29U G56C    0.162
G1A C37A    0.0752
A26G U62A    0.228
C38A G57U    0.0968
U8G U63A    0.245
G29C U58C    0.159
C18A A44U    0.105
G15C U63A    0.188
A28G A43G    0.158

Attention now shifts to the item below.
Report self-cleavage for A49G G57A please.
0.111
